What SPOT intensity was measured for each of the following?
Molecular target: Sho1, P40073
Sequence (P40073 287-367): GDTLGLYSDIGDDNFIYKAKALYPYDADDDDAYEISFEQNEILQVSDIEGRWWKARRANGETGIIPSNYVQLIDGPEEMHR
Experiment: SPOT array
Details: median of control spots 1148
Respond with the number and no other words.

Query string: Need SPOT intensity of NNNKMRPHLPPLSSG , thanks.
Result string: 61

Query string: Same read-out for LLRRTIPKRPFYHVL ?
Result string: 26

Query string: Same read-out for WRPRIVPILPYITRL ?
Result string: 3

Query string: Same read-out for IKKRNKIRLPSGSPE ?
Result string: 122

Query string: Same read-out for QPWTDQFEKLEKEVS ?
Result string: 0

Query string: Same read-out for NQARKPFLLPATELS ?
Result string: 38

Query string: Same read-out for SSSSSPPPLPTRRDH ?
Result string: 0
